Target: EcoRI restriction endonuclease (UniProt P00642 1-277)
Sequence (P00642 whole entry): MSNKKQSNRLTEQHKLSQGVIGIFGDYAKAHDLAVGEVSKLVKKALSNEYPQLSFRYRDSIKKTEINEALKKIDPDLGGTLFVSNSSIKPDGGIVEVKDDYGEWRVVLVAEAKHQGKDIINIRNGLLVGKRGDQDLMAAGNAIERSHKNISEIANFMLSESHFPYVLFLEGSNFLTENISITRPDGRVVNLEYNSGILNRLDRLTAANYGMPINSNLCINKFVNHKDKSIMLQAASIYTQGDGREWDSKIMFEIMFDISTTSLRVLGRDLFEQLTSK
Experiment: nanopore rupture with qPCR
PROPERTY: binding signal

# BINDER, DATA_VALUE
records = [
    ("105 bp TGACTTC (third base A to C) (dsDNA) DNA 1: TAAGTTGGGTAACGCCAGGGTTTTCCCAGTCACGACGTTGTAAAACGACGGCCAGTGACTTCGAGCTCGGTACCCGGGGATCCTCTAGAGTCGACCTGCAGGCAT DNA 2: ATGCCTGCAGGTCGACTCTAGAGGATCCCCGGGTACCGAGCTCGAAGTCACTGGCCGTCGTTTTACAACGTCGTGACTGGGAAAACCCTGGCGTTACCCAACTTA", "1.08 V (threshold voltage)"),
    ("105 bp TGCATTC (second base A to C) (dsDNA) DNA 1: TAAGTTGGGTAACGCCAGGGTTTTCCCAGTCACGACGTTGTAAAACGACGGCCAGTGCATTCGAGCTCGGTACCCGGGGATCCTCTAGAGTCGACCTGCAGGCAT DNA 2: ATGCCTGCAGGTCGACTCTAGAGGATCCCCGGGTACCGAGCTCGAATGCACTGGCCGTCGTTTTACAACGTCGTGACTGGGAAAACCCTGGCGTTACCCAACTTA", "0.93 V (threshold voltage)"),
]
